IC50 by entry:
# Test system: MCF7
# method: Cytotoxicity against human MCF7 cells assessed as cell viability after 48 hrs by MTT assay
# Assay type: functional, cell-based
# study conditions: MCF7, 48 h

# compound smiles, IC50
rows = [
    ("CCOC(=O)CC[C@@]1(C)[C@H]([C@](C)(O)CO)CC[C@]2(C)[C@@H]1CC[C@@H]1[C@@H]([C@]3(C)CC[C@H](C(C)(C)O)O3)CC[C@]12C", "> 50 µM"),
    ("CC(C)(O)[C@H]1CC[C@@](C)([C@H]2CC[C@]3(C)[C@@H]2CC[C@@H]2[C@@]4(C)CC[C@@H](O)C(C)(C)[C@@H]4CC[C@]23C)O1", "> 50 µM"),
    ("CC(C)(O)[C@@H]1CC[C@@](C)([C@H]2CC[C@]3(C)[C@@H]2CC[C@@H]2[C@@]4(C)CCC(=O)[C@@](C)(CO)[C@@H]4CC[C@]23C)O1", "18.3 µM"),
]
